- measured_target: 484
- assay_remarks: SPR; liposome-bound MPER
Where no end group is shown, it is not given here. The star is where a group is joined. Palmitoyl = CCCCCCCCCCCCCCCC(=O)*
parameter: pKd
In plain terms, pKd is the concentration in mol/L turned into minus its base-10 logarithm.

**Query** Check the records and state pKd for Palmitoyl-DLLELDKWASLWNWFNITNWLWYIK [N-terminally palmitoylated MPER peptide]
**Result** 8.26
